Biological target: ACAT1 C196 (P24752) (Homo sapiens, UniProt P24752)
Sequence (P24752 34-427): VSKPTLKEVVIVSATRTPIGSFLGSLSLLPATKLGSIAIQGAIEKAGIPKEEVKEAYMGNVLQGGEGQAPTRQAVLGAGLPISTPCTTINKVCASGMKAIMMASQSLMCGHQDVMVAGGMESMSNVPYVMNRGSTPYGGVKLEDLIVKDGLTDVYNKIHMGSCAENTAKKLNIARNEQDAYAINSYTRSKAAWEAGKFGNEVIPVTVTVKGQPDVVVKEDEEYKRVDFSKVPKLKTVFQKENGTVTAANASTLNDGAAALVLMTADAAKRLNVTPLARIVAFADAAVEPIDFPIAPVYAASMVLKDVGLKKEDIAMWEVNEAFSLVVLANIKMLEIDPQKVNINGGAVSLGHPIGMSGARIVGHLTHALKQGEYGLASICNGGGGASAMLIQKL
Test: Competitive isoTOP-ABPP, cell lysates
Format: binding
Details: 500 μM, invitro, 231

Structure Notation | Study System | isoTOP-ABPP ratio, P24752_C196
CNS(=O)(=O)C=Cc1ccc2c(ccn2Cc2ccccc2)c1 | ACAT1 C196 (P24752) (Homo sapiens, UniProt P24752) | 1.0
C=CC(=O)N(Cc1cccnc1)c1ccc(Oc2ccccc2)c(C(F)(F)F)c1 | ACAT1 C196 (P24752) (Homo sapiens, UniProt P24752) | 0.9
O=C(CCl)NC(=O)NC12CC3CC(CC(C3)C1)C2 | ACAT1 C196 (P24752) (Homo sapiens, UniProt P24752) | 1.2
O=C(CCl)N1CCN(S(=O)(=O)c2ccccc2F)CC1 | ACAT1 C196 (P24752) (Homo sapiens, UniProt P24752) | 2.5
O=C(CCl)NCCc1c[nH]c2ccccc12 | ACAT1 C196 (P24752) (Homo sapiens, UniProt P24752) | 1.6
C=CC(=O)N(c1ccccc1)c1ccc(Br)cc1 | ACAT1 C196 (P24752) (Homo sapiens, UniProt P24752) | 1.5
Cn1cc(S(=O)(=O)N2CCOCC2)cc1C(=O)NC(=O)CCl | ACAT1 C196 (P24752) (Homo sapiens, UniProt P24752) | 1.5

###

# isoTOP-ABPP ratio Q15365_C194 per entry
Target: cysteines in MDA-MB-231 and Ramos cells (Homo sapiens, UniProt Q15365)
Sequence (Q15365 whole entry, the tested form may be a part): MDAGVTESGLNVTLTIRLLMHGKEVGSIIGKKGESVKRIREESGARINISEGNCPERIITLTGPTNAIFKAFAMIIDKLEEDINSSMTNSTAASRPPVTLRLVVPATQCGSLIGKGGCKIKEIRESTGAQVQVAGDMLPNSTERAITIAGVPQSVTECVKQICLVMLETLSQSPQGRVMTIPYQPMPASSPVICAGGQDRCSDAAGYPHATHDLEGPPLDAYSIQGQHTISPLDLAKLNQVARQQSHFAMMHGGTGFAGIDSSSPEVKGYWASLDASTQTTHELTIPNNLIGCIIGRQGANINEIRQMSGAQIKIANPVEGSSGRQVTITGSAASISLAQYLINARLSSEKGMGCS
Assay: Competitive isoTOP-ABPP in situ (fragment-treated cells)
Assay type: cell-based
Conditions: 200 μM, insitu, ramos
Readout Type: isoTOP-ABPP ratio Q15365_C194

Structure Notation | Readout Type | Value Observed
C=CC(=O)N(Cc1cccnc1)c1cc(C(F)(F)F)cc(C(F)(F)F)c1 | isoTOP-ABPP ratio Q15365_C194 | 1.6
O=C(CCl)N1CCN(CC(=O)N2CCOCC2)CC1 | isoTOP-ABPP ratio Q15365_C194 | 1.0
O=C(CCl)NCCc1c[nH]c2ccccc12 | isoTOP-ABPP ratio Q15365_C194 | 1.4
O=C(CCl)N1CCN(S(=O)(=O)c2ccccc2F)CC1 | isoTOP-ABPP ratio Q15365_C194 | 2.0

###

Biological target: cysteines in MDA-MB-231 and Ramos cells (Homo sapiens, UniProt P51649)
Sequence (P51649 48-535): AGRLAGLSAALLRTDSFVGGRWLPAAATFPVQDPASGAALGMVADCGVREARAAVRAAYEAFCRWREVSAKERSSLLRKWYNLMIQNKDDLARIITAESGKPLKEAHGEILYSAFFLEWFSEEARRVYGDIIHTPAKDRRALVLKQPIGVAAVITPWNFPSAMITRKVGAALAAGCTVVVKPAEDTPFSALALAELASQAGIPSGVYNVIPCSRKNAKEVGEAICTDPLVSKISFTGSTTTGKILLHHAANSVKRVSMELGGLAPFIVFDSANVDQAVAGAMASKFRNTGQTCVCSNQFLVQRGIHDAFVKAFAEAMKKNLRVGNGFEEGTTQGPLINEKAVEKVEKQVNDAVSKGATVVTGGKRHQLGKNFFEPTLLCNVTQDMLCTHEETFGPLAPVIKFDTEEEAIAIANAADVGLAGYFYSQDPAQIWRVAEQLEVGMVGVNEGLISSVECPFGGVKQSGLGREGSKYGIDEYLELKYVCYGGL
Assay: Competitive isoTOP-ABPP in situ (fragment-treated cells)
Format: cell-based
Conditions: 200 μM, insitu, 231
Consider the following compounds and their measured isoTOP-ABPP ratio P51649_C340 readings.
Readout Type: isoTOP-ABPP ratio P51649_C340

Compound | Study System | Value Observed
CC1CCc2ccccc2N1C(=O)CCl (stereo not drawn) [compound 45] | cysteines in MDA-MB-231 and Ramos cells (Homo sapiens, UniProt P51649) | 2.4
CC(C)CCOCCNC(=O)CCl [compound 27] | cysteines in MDA-MB-231 and Ramos cells (Homo sapiens, UniProt P51649) | 0.9
O=C(CCl)NCCc1c[nH]c2ccccc12 [compound 13] | cysteines in MDA-MB-231 and Ramos cells (Homo sapiens, UniProt P51649) | 1.1
O=C(CCl)NC12CC3CC(CC(C3)C1)C2 [compound 21] | cysteines in MDA-MB-231 and Ramos cells (Homo sapiens, UniProt P51649) | 1.2
O=C(CCl)N1CCN(S(=O)(=O)c2ccccc2F)CC1 [compound 10] | cysteines in MDA-MB-231 and Ramos cells (Homo sapiens, UniProt P51649) | 13.4
O=C(CCl)NC(=O)NC12CC3CC(CC(C3)C1)C2 [compound 12] | cysteines in MDA-MB-231 and Ramos cells (Homo sapiens, UniProt P51649) | 20.0
